test: recombinant barcode read abundance after kanamycin selection (control-corrected) (log10(CPM+1)); higher = more efficient recombination; sequences stand for … in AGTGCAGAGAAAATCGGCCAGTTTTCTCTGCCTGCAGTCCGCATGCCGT…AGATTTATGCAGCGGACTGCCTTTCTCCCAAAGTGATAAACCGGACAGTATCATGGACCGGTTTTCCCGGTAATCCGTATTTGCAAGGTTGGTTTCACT; site = the 11-nt target
Reported recombinant barcode read abundance (log10) values follow for various sequences
// keep it numeric: no unit symbol after the value

As a guide, the following entries are already answered.
>  <orderedResidues>
ATGGCCTCTTGGGTTCTAACCTGTTGCTA (site GCTTAAACTAG)

>  <number>
0.0975

$$$$
>  <orderedResidues>
GAGGTGCCTTGGGTTCTAACCTGTTGCTG (site CTAACTACTAC)

>  <number>
0.0482

$$$$
>  <orderedResidues>
TGACGTCCTTGGGTTCTAACCTGTTGCGT (site TGACGTCCTAG)

>  <number>
0.0763

$$$$
>  <orderedResidues>
GTCGTCACTTGGGTTCTAACCTGTTGCCT (site GTCGTCACTAG)

>  <number>
0.334

$$$$
>  <orderedResidues>
TAGGCTACTTGGGTTCTAACCTGTTGCAA (site TAGGCTACTCT)

>  <number>
0.0112

$$$$
>  <orderedResidues>
TACAGCCCTTGGGTTCTAACCTGTTGCCT (site TTCAGCCCTAG)

>  <number>
0.183

$$$$
>  <orderedResidues>
AGAAGTCCTTGGGTTCTAACCTGTTGCTG (site AGAAGTCCTCT)

>  <number>
0.773

$$$$
>  <orderedResidues>
GGGCACACTTGGGTTCTAACCTGTTGCAC (site GGGCACACTGT)

>  <number>
2.52

$$$$

Given the sequence GTAACCGCTTGGGTTCTAACCTGTTGCCT (site GTGACCGCTAG) , write its reported recombinant barcode read abundance (log10).
0.115

Given the sequence GTATCTCCTTGGGTTCTAACCTGTTGCTT (site GTATTTCCTAA) , write its reported recombinant barcode read abundance (log10).
0.136

* * *

Reported recombinant UMI read abundance (log10) values follow for various sequences
test: recombinant UMI read abundance after kanamycin selection (control-corrected) (log10(CPM+1)); higher = more efficient recombination; extreme values may be limits of the assay; sequences stand for … in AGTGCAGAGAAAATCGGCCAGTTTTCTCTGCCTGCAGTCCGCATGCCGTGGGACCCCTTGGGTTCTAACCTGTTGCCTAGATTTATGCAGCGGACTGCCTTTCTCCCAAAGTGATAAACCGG…AGGTTGGTTTCACT; site = the 11-nt donor

As a guide, the following entries are already answered.
>  <orderedResidues>
GGTCTAACATGGACCGGTTTTCCCGGTAATCCGTATTTGTA (site GGTCGAACTTA)

>  <recombinant UMI read abundance (log10)>
0.0128

$$$$
>  <orderedResidues>
GCGAAGTCATGGACCGGTTTTCCCGGTAATCCGTATTTGGG (site GCGAAGTCTCC)

>  <recombinant UMI read abundance (log10)>
1.21

$$$$
>  <orderedResidues>
TTAGTATCATGGACCGGTTTTCCCGGTAATCCGTATTTGAC (site CTAGTATCTGT)

>  <recombinant UMI read abundance (log10)>
2.18

$$$$
>  <orderedResidues>
CCCTGTCCATGGACCGGTTTTCCCGGTAATCCGTATTTGCA (site CCCGGTCCTTG)

>  <recombinant UMI read abundance (log10)>
0

$$$$
>  <orderedResidues>
ATCCCCTCATGGACCGGTTTTCCCGGTAATCCGTATTTGGA (site ATCCCCTCTTC)

>  <recombinant UMI read abundance (log10)>
1.95

$$$$
>  <orderedResidues>
GACTTAGCATGGACCGGTTTTCCCGGTAATCCGTATTTGTG (site GACTTAGCTCA)

>  <recombinant UMI read abundance (log10)>
0.251

$$$$

Given the sequence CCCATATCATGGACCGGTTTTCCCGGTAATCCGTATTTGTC (site CCCATATCTGT) , write its reported recombinant UMI read abundance (log10).
0

Given the sequence TGTACAGCATGGACCGGTTTTCCCGGTAATCCGTATTTGAC (site TGTACAACTGT) , write its reported recombinant UMI read abundance (log10).
0

Given the sequence GACTTGGCATGGACCGGTTTTCCCGGTAATCCGTATTTGGA (site AACTTGGCTTC) , write its reported recombinant UMI read abundance (log10).
0.227

* * *

test: recombinant UMI read abundance after kanamycin selection (control-corrected) (log10(CPM+1)); higher = more efficient recombination; extreme values may be limits of the assay; sequences stand for … in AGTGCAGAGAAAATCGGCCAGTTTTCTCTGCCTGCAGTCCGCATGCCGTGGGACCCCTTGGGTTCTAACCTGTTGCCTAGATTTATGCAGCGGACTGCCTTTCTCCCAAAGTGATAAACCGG…AGGTTGGTTTCACT; site = the 11-nt donor
Reported recombinant UMI read abundance (log10) values follow for various sequences

As a guide, the following entries are already answered.
>  <orderedResidues>
TCTACCGCATGGACCGGTTTTCCCGGTAATCCGTATTTGCG (site TCGACCGCTCG)

>  <result>
0.0889

$$$$
>  <orderedResidues>
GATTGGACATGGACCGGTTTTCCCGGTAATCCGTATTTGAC (site GATCGGACTGT)

>  <result>
0.745

$$$$
>  <orderedResidues>
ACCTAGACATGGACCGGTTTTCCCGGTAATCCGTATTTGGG (site ACCTAGGCTCC)

>  <result>
0.0977

$$$$
>  <orderedResidues>
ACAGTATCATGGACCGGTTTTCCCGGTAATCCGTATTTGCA (site ACAATAACTTG)

>  <result>
0

$$$$
>  <orderedResidues>
GGCAATACATGGACCGGTTTTCCCGGTAATCCGTATTTGAA (site GGCAATCCTTT)

>  <result>
0.00332

$$$$
>  <orderedResidues>
GGTCCCACATGGACCGGTTTTCCCGGTAATCCGTATTTGTA (site GGTCCGACTTA)

>  <result>
0.0061

$$$$
>  <orderedResidues>
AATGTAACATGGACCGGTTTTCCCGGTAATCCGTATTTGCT (site TATGTAACTAG)

>  <result>
2.39

$$$$
>  <orderedResidues>
AAGCGGGCATGGACCGGTTTTCCCGGTAATCCGTATTTGAC (site AAGCGGGCTGT)

>  <result>
1.62

$$$$

Given the sequence TGCGAGGCATGGACCGGTTTTCCCGGTAATCCGTATTTGGT (site TGCTAGGCTAC) , write its reported recombinant UMI read abundance (log10).
0.242

Given the sequence AAAGTCACATGGACCGGTTTTCCCGGTAATCCGTATTTGGG (site CAAGTCACTCC) , write its reported recombinant UMI read abundance (log10).
0.458

Given the sequence ACCCGTCCATGGACCGGTTTTCCCGGTAATCCGTATTTGAT (site ACCCGTCCTAT) , write its reported recombinant UMI read abundance (log10).
0.224

* * *

test: recombinant barcode read abundance after kanamycin selection (control-corrected) (log10(CPM+1)); higher = more efficient recombination; sequences stand for … in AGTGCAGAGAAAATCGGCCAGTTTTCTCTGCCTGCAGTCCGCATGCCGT…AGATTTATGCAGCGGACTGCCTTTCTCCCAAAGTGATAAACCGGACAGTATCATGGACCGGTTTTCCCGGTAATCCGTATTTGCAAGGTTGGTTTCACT; site = the 11-nt target
Reported recombinant barcode read abundance (log10) values follow for various sequences
// keep it numeric: no unit symbol after the value

>  <orderedResidues>
GTACGTCCTTGGGTTCTAACCTGTTGCCT (site GTACGTCCTAA)

>  <number>
0.112

$$$$
>  <orderedResidues>
AAGTTTACTTGGGTTCTAACCTGTTGCCT (site AAGTTTACTAG)

>  <number>
0.0875

$$$$
>  <orderedResidues>
GGCACCACTTGGGTTCTAACCTGTTGCGT (site GGCACTACTAC)

>  <number>
0.108

$$$$
>  <orderedResidues>
ACAAAGCCTTGGGTTCTAACCTGTTGCCT (site ACAAATCCTAG)

>  <number>
0.0552

$$$$
>  <orderedResidues>
CAATACACTTGGGTTCTAACCTGTTGCCT (site CCACACACTAG)

>  <number>
0.0608

$$$$
>  <orderedResidues>
CTCGGGCCTTGGGTTCTAACCTGTTGCCT (site CTCGGGCCTAG)

>  <number>
0.144

$$$$
>  <orderedResidues>
TGGAATTCTTGGGTTCTAACCTGTTGCTT (site TGGAATTCTAA)

>  <number>
0.0863

$$$$
>  <orderedResidues>
AGGCAGTCTTGGGTTCTAACCTGTTGCCT (site AGGCAGTCTAG)

>  <number>
0.444

$$$$
>  <orderedResidues>
AAGATTCCTTGGGTTCTAACCTGTTGCCT (site ATGATTCCTAG)

>  <number>
0.217

$$$$

Next, consider the following sequence.
Given the sequence GGTCGCGCTTGGGTTCTAACCTGTTGCCT (site GGTCGCGCTAG) , write its reported recombinant barcode read abundance (log10).
0.535
